# Test summary: growth suppression of PTEN-deleted HCT116, pilot screen, cell-based, HCT116 clonal line, CellTiter-Glo (AID 824);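 note: 0% = 20 µM Hyamine control and 100% = vehicle cell control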
# Condition details: 60 h, at 10 µM, active compounds read low
Inconclusive results are not listed.

- Compound: "Cn1c(C(=O)NCCCN2CCN(c3ccccc3F)CC2)cc2c(=O)n(C)c3ccccc3c21"
  viability (%): 54.9
- Compound: "CCOC(=O)Cn1c(=O)oc2cc(S(=O)(=O)Nc3ccc(F)cc3)ccc21"
  viability (%): 106
- Compound: "COc1cc(C2N(c3ccc(Cl)cc3)C(=O)C3CCCN32)cc(OC)c1OC (stereo not drawn)"
  viability (%): 97.6
- Compound: "CC1=C(C(=O)OC(C)C)C(c2c(O)ccc3ccccc23)NC(=O)N1 (stereo not drawn)"
  viability (%): 90.7
- Compound: "Cn1c(=O)oc2cc(S(=O)(=O)N3CCC(C(=O)NCc4cccs4)CC3)ccc21"
  viability (%): 90.2
- Compound: "Clc1ccc(CSc2nnc(-c3cccnc3)n2Cc2ccco2)c(Cl)c1"
  viability (%): 88.2
- Compound: "COc1cc(OC)cc(-c2cc3nc(C)c(CCC(=O)O)c(C)n3n2)c1"
  viability (%): 96.6
- Compound: "CC1CCN(c2nnc(N3CCC(C)CC3)c3ccccc23)CC1"
  viability (%): 81.8
- Compound: "CCOC(=O)N1CCC(NC(=O)C(CC(C)C)NC(=O)C2CCCCC2)CC1 (stereo not drawn)"
  viability (%): 100
- Compound: "Cc1cc(C)cc(-c2nc(-c3ccncc3)no2)c1"
  viability (%): 92
- Compound: "COC(=O)c1ccc(NC(=O)CSc2nnc(-c3ccncc3)n2N)cc1"
  viability (%): 97.4
- Compound: "O=C1CC(c2ccccc2)CN1C(=O)c1ccccc1 (stereo not drawn)"
  viability (%): 98.6
- Compound: "CCn1c(=O)c2cc(C(=O)N3CCN(C(=O)c4ccco4)CC3)sc2c2ccccc21"
  viability (%): 86.3
- Compound: "CC1(C)CC2(CC(C)(C)N1)OC(=O)N1CCc3ccccc3C12C (stereo not drawn)"
  viability (%): 97.9
- Compound: "COc1ccccc1CC(=O)Nc1ccc(-c2nnc(-c3ccco3)o2)cc1"
  viability (%): 77.7
- Compound: "COc1ccc(CCNS(=O)(=O)c2ccc3c(c2)OCCO3)cc1OC"
  viability (%): 89.9
- Compound: "COc1ccc(C(=O)/C(C)=N/O)cc1OC"
  viability (%): 88.6
- Compound: "CCCn1c(CN2CCN(c3cccc(Cl)c3)CC2)nc2c1c(=O)n(C)c(=O)n2C"
  viability (%): 54
- Compound: "COCCn1c(=O)[nH]c2cc(C(=O)NCC3CCCO3)ccc2c1=O (stereo not drawn)"
  viability (%): 95.2
- Compound: "O=C(c1c(F)cccc1F)N1CCN(c2cccc(C(F)(F)F)c2)CC1"
  viability (%): 82.1
- Compound: "O=C(CCCSc1nc2ccccc2s1)NCc1ccco1"
  viability (%): 86.3
- Compound: "CC(=O)N(c1ccc(C)cc1)C1C=CS(=O)(=O)C1 (stereo not drawn)"
  viability (%): 105
- Compound: "O=C(c1cc(C2CC2)on1)N1CCOCC1"
  viability (%): 98.7
